Catalogue of compounds with associated growth
# Test system: MALME-3M melanoma
# Protocol Details: NCI-60 one-dose screen, 48 h (100 = growth as untreated, 0 = no growth, -100 = all killed)
# Experimental Setup: 10 µM unless noted
The panel holds about 83,000 compounds, 20% with a hit somewhere; the sample as a whole holds those more often.
Parameter Measured: growth (%)

CC1(c2ccccc2)CO1 (stereo not drawn)    118
ClCC(Cl)[C@@H]1CC2C=CC1C2 (stereo partly drawn)    102
Cc1ccc(C)c2c1CCC2=O    103
BrCc1cccc(C[P+](c2ccccc2)(c2ccccc2)c2ccccc2)c1    38.3
CC(=O)c1cccs1    115
COc1nc2ccccc2s1    111
CCOC(=O)C(=O)CC(=O)c1ccccc1    100
N#Cc1ccc2nc[nH]c2c1    102

* * *

# Test system: RXF 393 renal
# Protocol Details: NCI-60 one-dose screen, 48 h
# Experimental Setup: 10 µM unless noted
# Experimental: Cells are grown in 96 well plates and exposed to the test compound for 48 hours. Compounds are tested at a single concentration, which is 10^-5 M for most compounds. The reported endpoint is percent growth (GI% or GIPRCNT), where numbers from 0 - 100% represent growth inhibition, and numbers from -100% - 0 represent cell death. For example, a value of 40 represents 60% growth inhibition. A value of 0 means no net growth occurred over the course of the experiment. […]
About 83,000 compounds went through this panel and 20% of them were active in at least one assay; those are over-represented in the sample as a whole. Activity calls are given as the source filed them. Rule for the calls: active = growth percent below 10; inactive = the rest.
Labels: class 1 = active, class 0 = inactive

C=CCc1cc(OC)c(OC)c(OC)c1    class 0
NC(=S)N/N=C/c1ccc(OC(=O)COc2ccc(Cl)cc2)cn1    class 0
C/C(=N\O)c1ccccn1    class 0
Cc1ccc(N2C(=O)c3cccc4c(N)c(S(=O)(=O)O)cc(c34)C2=O)cc1    class 0
C=CCOc1ccc(Cl)cc1Cl    class 0
Cc1cccc(-[n+]2noc(N)n2)c1    class 0
C1Cc2onc(-c3noc4c3CCC4)c2C1    class 0
CCOC(=O)C(CCC#N)(CCC#N)C(=O)OCC    class 0
CCCCCCCCCCCCCC/C=C\C(CC(=O)O)C(=O)O (configuration not stated)    class 0
CN(CCCN(C)CCC1CCCCC1)CCC1CCCCC1    class 1
CC(=O)N=c1ccc2nc3c(cc(N)c4ccccc43)oc-2c1    class 0
Oc1cc2ccccc2c(-c2c(O)c(O)cc3ccccc23)c1O    class 0
CCC(=O)C1C(=O)c2ccccc2C1=O    class 0
COC(=O)Cc1cc(COC(C)=O)ccc1C    class 0
O=C(O)CCCCCNC(=O)OCc1ccccc1    class 0
CC(C)c1ncc([N+](=O)[O-])n1C    class 0
O=C1NC(=O)/C(=C\c2ccncc2)N1    class 0

* * *

# System: SK-MEL-2 melanoma
# Protocol Details: NCI-60 one-dose screen, 48 h
# Experimental Setup: 10 µM unless noted
Compounds without any hit were thinned out: in the full panel of roughly 83,000, 20% have a hit. Calls of active or inactive are those of the source. The calls were made as follows: active = growth percent below 10; inactive = the rest.
Labels: true (1) = active, false (0) = inactive

NNc1ncnc2nc[nH]c12    true (1)
Cc1cc(Nc2ccc3c(c2)OCO3)c2cc3c(cc2n1)OCO3    false (0)
S=C=Nc1ccc2ccccc2c1    false (0)
CN(CCCN(C)CCC1CCCCC1)CCC1CCCCC1    false (0)
CC1CC(C)S(=O)(=O)C1 (stereo not drawn)    false (0)
O=C(O)c1ccccc1Cc1ccc2c(c1)CCCC2    false (0)
COc1ccc(Nc2cc(Cl)ccc2C(=O)O)cn1    false (0)
OC(CBr)CCBr (stereo not drawn)    false (0)

* * *

# Tested on: SF-268 CNS
# Protocol Details: NCI-60 one-dose screen, 48 h
# Experimental Setup: 10 µM unless noted
# Method: Cells are grown in 96 well plates and exposed to the test compound for 48 hours. Compounds are tested at a single concentration, which is 10^-5 M for most compounds. The reported endpoint is percent growth (GI% or GIPRCNT), where numbers from 0 - 100% represent growth inhibition, and numbers from -100% - 0 represent cell death. For example, a value of 40 represents 60% growth inhibition. A value of 0 means no net growth occurred over the course of the experiment. […]
Compounds without any hit were thinned out: in the full panel of roughly 83,000, 20% have a hit. Calls of active or inactive are those of the source. How the source made its calls: active means growth percent below 10; inactive means the rest.
Labels: 1.0 for active, 0.0 for inactive

Nc1ccccc1SC1CC(=O)N(c2ccc(Cl)c(Cl)c2)C1=O (stereo unspecified)    0.0
OCC1CCC(O)C(CO)N1 (stereo unspecified)    0.0
CCCC(=O)c1cccs1    0.0
C/C(=N\Nc1ccc([N+](=O)[O-])cc1[N+](=O)[O-])c1ccc(Br)cc1    0.0
O=Cc1c(O)c2ccccc2[nH]c1=O    0.0
Cc1ccc(S(=O)(=O)CCCl)cc1    0.0
Nc1nc2nnc(-c3ccccc3)c(-c3ccccc3)n2n1    0.0
CCC1CCC(C)NC1 (stereo unspecified)    0.0
CC(C)(C)[Si](C)(C)OCC1OC(n2cnc3c(N)ncnc32)CC1OS(C)(=O)=O (stereo unspecified)    0.0
NC(CO)(CO)c1ccccc1    0.0
c1ccc(Nc2ccccn2)nc1    0.0
CC(C)OCC(CCl)OC(=O)Nc1ccccc1 (stereo unspecified)    0.0
O=C(Oc1ccccc1Cl)c1ccc(Cl)cc1Cl    0.0
Cn1c(=O)c2nc3c(=O)n(C)c(=O)n(C)c3nc2n(C)c1=O    0.0
Cc1c(Cl)cccc1NC(=S)NC(=O)c1ccccc1    0.0
CCCCCCCCCCCCCCCCCC(=O)NCCNC(=O)CCCCCCCCCCCCCCCCC    0.0
OCCc1ccc(Cl)cc1    0.0
O=C(Nc1ccccc1)c1ccco1    0.0
O=S(=O)(O)c1cccc2cccnc12    0.0
CCOC(=O)CNC(=O)Sc1ccc(C(C)(C)C)cc1    0.0
O=C1NC(=O)C(c2ccccc2)O1 (stereo unspecified)    0.0
NC(=S)N/N=C/c1ccc(OC(=O)COc2ccccc2)cn1    0.0
S=C(NCc1ccccc1)N1CCC(CCCC2CCN(C(=S)NCc3ccccc3)CC2)CC1    0.0
CCOC(=O)c1ccc(NC(C)=O)o1    0.0
O=C(O)c1cc(I)ccc1O    0.0
CCOC(C=O)OCC    0.0
O=C1C=Cc2ccccc2/C1=C/c1[nH]c(=O)[nH]c1O    0.0
CC(C)C1CCC(C)C(O)C1 (stereo unspecified)    0.0
CC(=O)NC(CCc1ccc(Cl)c(Cl)c1)c1cccc(O)c(=O)c1 (stereo unspecified)    1.0
CCOS(=O)(=O)c1ccc([N+](=O)[O-])cc1    0.0
OC(CBr)CCBr (stereo unspecified)    0.0
CCCCCCCCCCCCCCCCOc1ccccc1NC(=O)CC(C)=O    0.0
CCCCOC(=O)c1ccc(NC(=O)CCl)cc1    0.0
C=CCC(OC(C)=O)c1ccc(C(C)C)cc1 (stereo unspecified)    0.0
O=S1(=O)c2ccccc2Oc2ccccc21    0.0
CC(=O)c1cc(O)ccc1O    0.0
CCOC(=O)CNC    0.0
COC(=O)c1ccc([N+](=O)[O-])c(C)c1    0.0
Nc1ncnc2c1ncn2C1OC(CO)C2OC21 (stereo unspecified)    0.0
CSc1cnc2ccccc2n1    0.0
CCc1ccccc1C(=O)N(CC)CC    0.0
CCCCCCCCCCCCSC1=C(Cl)C(=O)C(OC)=C(OC)C1=O    0.0
C=COC(=O)CCOCC(CC)CCCC (stereo unspecified)    0.0
Oc1ccc2ccccc2c1CN1CCOCC1    0.0
O=C(Nc1ccc([N+](=O)[O-])cc1)C(=O)Nc1ccc([N+](=O)[O-])cc1    0.0
O=Cc1ccc(Cl)c(Cl)c1    0.0
Cc1cc(C(=O)NN)c(C#N)c(=O)[nH]1    0.0
O=C1Nc2ccccc2/C1=C\c1ccccc1O    0.0
Cc1ccc(C)c2c1CCC2=O    0.0
CCN(C(C)=O)c1ccc([N+](=O)[O-])cc1    0.0
O=C1CSc2ccccc2N1    0.0
Cc1[nH]c(=S)[nH]c(=O)c1C    0.0
Cc1cccnc1NC1OC(=O)c2ccccc21 (stereo unspecified)    0.0
O=C(Nc1c(Cl)cc(Cl)cc1Cl)ON=C1CCCCC1    0.0
Nc1cc(F)ccc1[N+](=O)[O-]    0.0
O=C(NCCc1ccccc1)/C(=C\c1ccc(Cl)cc1Cl)NC(=O)c1ccccc1    0.0

* * *

# System: PC-3 prostate
# Protocol Details: NCI-60 one-dose screen, 48 h (100 = growth as untreated, 0 = no growth, -100 = all killed)
# Experimental Setup: 10 µM unless noted
The panel holds about 83,000 compounds, 20% with a hit somewhere; the sample as a whole holds those more often.
Parameter Measured: growth (%)

Cc1ccc[n+](CCC(N)=O)c1    86.1
Nc1ccc(F)cc1F    89.1
CN(C)c1ccc(/C=C/C(=O)c2ccc(NC(N)=O)cc2)cc1    98.4
Cc1cccnc1NC1OC(=O)c2ccccc21 (stereo not drawn)    114
CC(=O)c1cccc(N(C)S(=O)(=O)c2ccc(C)cc2)c1    85.2
CCOC(=O)C(C#N)=C1CCN(C)CC1    87.7
CC(C)N1CC(=O)N2CSCC2C1=O (stereo not drawn)    101
c1ccc(Oc2c3ccccc3nc3ccccc23)cc1    20.1
CCC(C)c1c(N)n(S(=O)(=O)c2ccc(C)cc2)oc1=O (stereo not drawn)    94.3
C=CCC(OC(C)=O)c1ccc(C(C)C)cc1 (stereo not drawn)    99.1
NNc1ncnc2nc[nH]c12    63
C=CCc1cc(OC)c(OC)c(OC)c1    100
O=C(c1cccc(C(=O)c2ccc3c4c(cccc24)C(=O)N(c2ccccc2)C3=O)c1)c1ccc2c3c(cccc13)C(=O)N(c1ccccc1)C2=O    82.3
O=C(Nc1cccc(Cl)c1)c1ccc(Cl)cc1Cl    82.2
Cc1ccc(C)c(CN(C)C)c1O    102
CCC1CCC(C)NC1 (stereo not drawn)    94.2
CC(O)C(F)(F)C(F)(F)C(F)(F)F (stereo not drawn)    110
Nc1ncnc2c1ncn2C1OC(CO)C2OC21 (stereo not drawn)    95.8
CCOc1ccc(C(=O)NCC(C)C)cc1    98.1
Nc1nc(Cl)cc(Cl)n1    98.5
CCOc1ccccc1NC(=O)CCl    83.5
CC(=O)NNC(=S)N/C=C/c1c(C)ccc([N+](=O)[O-])c1[N+](=O)[O-]    97.2
CCCCCCCCCc1ccc(OC(C)=O)cc1    94.1
CN(C)c1ccc(O)c2c1CC1CC3C(N(C)C)C(=O)C(C(N)=O)=C(O)C3(O)C(=O)C1=C2O (stereo not drawn)    34.6
S=C(Sc1ccc(Cl)cc1)Sc1ccc(Cl)cc1    9.49
Cc1cccc2ccccc12    95.5
NC(=O)OCCO    98.5
CCOC(=O)C(=O)CC(=O)c1ccccc1    89.4
